Tested on: intracellular proteome of ENR+CD and ENR organoids
Experiment: LC-MS/MS TMT proteomics of ENR+CD versus ENR organoids
Format: cell-based, C57BL/6 mice
Details: up = enriched in ENR+CD, down = enriched in ENR; FDR<0.05 and log fold change cut-off
experimentalReadout: change

Return change (reported value) for this molecule: Q9JJ78 (protein, UniProt Q9JJ78 1-330, looked up, full-length) MEGINNFKTPNKSEKRKSVLCSTPCVNIPASPFMQKLGFGTGVSVYLMKRSPRGLSHSPWAVKKISLLCDDHYRTVYQKRLTDEAKILKNLNHPNIIGYRAFTEASDGSLCLAMEYGGEKSLNDLIEERNKDSGSPFPAAVILRVALHMARGLKYLHQEKKLLHGDIKSSNVVIKGDFETIKICDVGVSLPLDENMTVTDPEACYIGTEPWKPKEALEENGIITDKADVFAFGLTLWEMMTLCIPHVNLPDDDVDEDATFDESDFDDEAYYAALGTRPSINMEELDDSYQKAIELFCVCTNEDPKDRPSAAHIVEALELDGQCCGLSSKH down

Please report the measured change for Q9DD24 (protein, UniProt Q9DD24 1-104, looked up, full-length) MKPCQKMEGNLEKEDEPKPEEEPKPEEKPEEGQEPEEEEKSEETFRERLIRSLQDFQEDIHNRHLSSDDLFRDVEELDEIRKVRNKLIVTRWKANRSHPYPYLM up
